- target_or_system: serum sample IHUS#B09032311A1
- assay_overview: ECL drug displacement assay, variant as competitor against labelled SEQ ID NO:1
metric_name: % reduction (%)
# output: bare number, implied unit %

Consider the following illustrative entries.
binder | % reduction (%)
Example 1c: (A14P, R39Q, K83R,T91Y, Q108L) (VHH) VHH: EVQLVESGGGLVQPGGSLRLSCAASGRTFNNYAMGWFRQAPGKEREFVAAITRSGVRSGVSAIYGDSVKDRFTISRDNAKNTLYLQMNSLRPEDTAVYYCAASAIGSGALRRFEYDYSGQGTLVTVSS | 6
Example 1C: wildtype (VHH) VHH: EVQLVESGGGLVQAGGSLRLSCAASGRTFNNYAMGWFRRAPGKEREFVAAITRSGVRSGVSAIYGDSVKDRFTISRDNAKNTLYLQMNSLKPEDTAVYTCAASAIGSGALRRFEYDYSGQGTQVTVSS | 4
Example 1C: (A14P, R39Q, K83R, T91Y, Q108L)-3A (VHH) VHH: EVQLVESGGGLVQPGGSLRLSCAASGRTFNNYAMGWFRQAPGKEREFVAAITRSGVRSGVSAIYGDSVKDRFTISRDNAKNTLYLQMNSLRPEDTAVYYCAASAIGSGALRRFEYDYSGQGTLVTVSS | 0

Proceeding to the next binder to report its % reduction.
IN: Data request, read-out % reduction, for Example 1C: (Q108L) (VHH) VHH: EVQLVESGGGLVQAGGSLRLSCAASGRTFNNYAMGWFRRAPGKEREFVAAITRSGVRSGVSAIYGDSVKDRFTISRDNAKNTLYLQMNSLKPEDTAVYTCAASAIGSGALRRFEYDYSGQGTLVTVSS
OUT: 5
